Tested on: ACHN renal
ASSAY_NOTES: NCI tumour cell line growth inhibition, 48 h
Entries annotated with measured TGI

Before answering, review these 6 worked examples.
CCOC(=O)c1c(NC(=O)c2ccc(C(C)C)cc2)sc2c(CN(C)C)c(O)ccc12 : 9.24 µM
Cc1ccc(C(=O)Cc2nc3c([nH]c2=O)c(C)nn3-c2ccccc2)c(C)c1 : > 10 µM
Cc1nc(SCC(N)=O)c2sc(=S)n(-c3ccccc3)c2n1 : > 10 µM
Cn1cc(C2=C(c3cn(C)c4ccc(N)cc34)C(=O)NC2=O)c2ccccc21 : > 25 µM
N#Cc1nc(C2CCC(=O)O2)oc1N (configuration not stated) : > 100 µM
CCCO/N=[N+](\[O-])N(CC)CC : > 100 µM

Turning to the following molecule.
Request: In one line, give reported TGI of the entry COc1cc(/C=C2\CN(C)CC3=C2Nc2nc(SC)[nH]c(=O)c2C3c2cc(OC)c(OC)c(OC)c2)cc(OC)c1OC (configuration not stated) .
Response: 3.55 µM

====

Test system: COLO 205 colon
ASSAY_NOTES: NCI tumour cell line growth inhibition, 48 h; in the data active = GI50 below about 0.43 µM; inactive = the rest
Answer with one of the outcomes given here: active, inactive

Request: How did this test come out for "CSc1ccc(/C=C2\CNC/C(=C\c3ccc(SC)cc3)C2=O)cc1" ?
Response: inactive

Request: How did this test come out for "COc1ccc(-c2cc(-c3ccc(Cl)cc3)c(C#N)c(=O)n2CCCCC(=O)Nc2ccccc2N)cc1" ?
Response: inactive

Request: How did this test come out for "O=C(Nc1ccc(OC(F)(F)F)cc1)c1sccc1NCc1ccnc2ccccc12" ?
Response: inactive

Request: How did this test come out for "NS(=O)(=O)c1ccc(N2Cc3cc(Cl)ccc3OC3=C2C(=O)N(CC2CCCCC2)C3=O)cc1" ?
Response: inactive

Request: How did this test come out for COC(=O)C1=C(OC(=O)c2ccc(Cl)cc2)C(C(=O)OC)[C@@]2(O)[C@@H](C(=O)OC)C(c3ccccc3C(F)(F)F)C[C@@H]1[C@@H]2C(=O)OC (stereo partly drawn) ?
Response: inactive

====

System: M14 melanoma
ASSAY_NOTES: NCI tumour cell line growth inhibition, 48 h
OBSERVABLE: TGI

Before answering, review these 5 worked examples.
Cc1nc2c(n1CC(C)(C)C)C(=O)c1ccccc1C2=O : > 100 µM
N#Cc1nc(C2CCC(=O)O2)oc1N (stereo not given) : > 100 µM
O=C1CC(c2ccccc2Cl)C2(C(=O)NC(=O)NC2=O)C(c2ccccc2Cl)C1 (stereo not given) : > 100 µM
Nc1cc(N)c2nc(-c3ccccc3)c(Oc3ccc(F)cc3)nc2c1 : 45 µM
CC[N+]1(C)CCC(O)(c2ccc(C)cc2)C(C(=O)c2ccc(C)cc2)C1 (stereo not given) : > 100 µM

Request: Output reported TGI of the compound COc1ccc([C@H]2CC(=O)N3CCCC3N2)cc1 (stereo not given in full) on M14 melanoma.
Response: > 100 µM

Request: Output reported TGI of the compound "CC(=O)OCC(=O)O[C@@H]1[C@H]2[C@@H](OC(=O)c3ccccc3)[C@@H](C)C[C@]2(O)[C@H](OC(C)=O)[C@@]2(C)C[C@]1(OC(C)=O)C[C@H]1C(=O)C(C)(C)[C@@H](OC(C)=O)[C@@H]12" on M14 melanoma.
Response: > 25 µM

Request: Output reported TGI of the compound "Nc1cc2c3c(cccc3c1)NC2=O" on M14 melanoma.
Response: > 100 µM

Request: Output reported TGI of the compound "CC(C)n1c(/C=C/[C@@H](O)C[C@@H](O)CC(=O)O)c(-c2ccc(F)cc2)c2ccccc21" on M14 melanoma.
Response: > 100 µM

Request: Output reported TGI of the compound "CC1(C)OC[C@@H](C[C@H](O)COCc2ccccc2)O1" on M14 melanoma.
Response: > 100 µM
